Assay: A qHTS for Small Molecule Inhibitors of Shiga Toxin; further: 0% is about no effect
Conditions: Vero cells, Shiga toxin protein synthesis inhibition reporter; at 38.7 µM, hits give high values
Hit rate of the full screen: of about 290,000 compounds, about 27,000 (9.3%) were called active. The sample holds actives, similar compounds and a random draw of the others, so the mix is not that of the screen.
Examples of compounds with documented inhibition follow.
The reply should be a number in %, with the unit left off.

# annotated cases, reported inhibition shown
| compound | inhibition (%) |
| --- | --- |
| COCn1c(C(O)c2ccccc2)cc2ccccc21 (stereo not given) | -6.57 |
| Cc1ccc(S(=O)(=O)N(CC(O)CN2CCCCC2)c2cccc([N+](=O)[O-])c2)cc1 (stereo not given) | -3.58 |
| Cc1ccc(S(=O)(=O)N(C)CC(=O)OCC(=O)Nc2ccccc2)cc1 | 10.4 |
| COc1ccc(NC(=O)CCC(=O)Nc2cc(OC)c(NC(=O)c3ccco3)cc2OC)c(OC)c1 | 2.68 |

Could you now look at the following compound, please?
// inhibition lookup, key: O=C(/C=C/Nc1ccccc1)c1cnc(-c2ccccc2)s1
-10.9

====

Experiment: A qHTS for Small Molecule Inhibitors of Shiga Toxin; further: 0% is about no effect
Settings: Vero cells, Shiga toxin protein synthesis inhibition reporter; at 38.7 µM, hits give high values
Screen size: about 290,000 compounds; about 27,000 (9.3%) were called active. This excerpt belongs to a sample that is enriched for actives.
// values below are reported inhibition
Numeric answer only, unit % assumed.

| molecule | resultUnit | inhibition |
| --- | --- | --- |
| CC(C)=CCN1CCN(CCCc2ccccc2)CC1CCO (stereo not given) | % | -4.24 |

Which value of inhibition has been reported for O=C(Nc1cccnc1)c1ccc(Cl)c([N+](=O)[O-])c1 in the records?
52.4

Another molecule: COc1cc(C(=O)NCc2cc3cc(Cl)ccc3n2C)cc(OC)c1OC
-6.37

Similarly, CCNC(=S)N(CCN(CC)CC)Cc1cc2cc3c(cc2[nH]c1=O)OCO3 ?
-7.63

Now the molecule CNC(=O)c1sc(NCc2ccccc2OC)nc1C
4.08

// query: O=C(Nc1ccccc1)c1ccco1
19.7

What do we get for O=C(Nc1cccc(NC(=O)c2ccco2)c1)c1cnccn1 ?
7.98

Same read-out for O=C(O)C1CCCCC1C(=O)N1CCN(S(=O)(=O)c2ccc(F)cc2)CC1 (stereo not given) ?
-21.1

Next: CCOC(=O)c1cn(Cc2cccc(C)c2)nn1
1.57

Record: O=C(Nc1ccccc1)/C(=C\c1ccco1)NC(=O)c1ccco1
14.3

====

List of inhibition values.
Test: A qHTS for Small Molecule Inhibitors of Shiga Toxin; further: 0% is about no effect
Details: Vero cells, Shiga toxin protein synthesis inhibition reporter; at 38.7 µM, hits give high values
Hit rate of the full screen: of about 290,000 compounds, about 27,000 (9.3%) were called active. Many of the other results were omitted from the sample, so actives are more common in it than they were.
Kindly answer with a numeric value in %, unit omitted.

| compound | valueReported |
| --- | --- |
| CN(C(=O)CN1C(=O)/C(=C/c2ccc(Cl)cc2)SC1=S)C1CCS(=O)(=O)C1 (centres undefined) | -7.14 |
| Cc1ccc(C)c(NC(=O)c2cc(-c3cc(C)cc(C)c3O)n[nH]2)c1 | 1.58 |

Data request, read-out inhibition, for CC1CCc2c(sc3nc4n(c(=O)c23)CCS4)C1 (centres undefined)
33.9

Note, next up: CN(C)S(=O)(=O)c1ccc(N/C=C(\[N+](=O)[O-])S(=O)(=O)c2ccccc2)cc1
-2.26

Also C/C(=N\NC(=O)CC(C)C)c1c(C(F)(F)F)[nH]n(-c2nc3ccccc3s2)c1=O ?
65.9

Follow-up entry: N#Cc1c(NC(=O)C2CC(Cl)=CCC2C(=O)O)sc2c1CCCCC2 (centres undefined)
18.3

Now the same for S=C(NCc1ccco1)Nc1ccc2c(c1)OCCO2
69.3

Try this compound too: Cc1csc(NC(=S)Nc2cccc(Cl)c2)n1
126

Now this one: COc1ccc(N2CCN(C(=O)Cn3cnc4sc(C)c(S(=O)(=O)N5CCOCC5)c4c3=O)CC2)cc1
-21.2

Moving on to CCC(C)Cn1c(O)cc2nn(-c3nc4ccccc4s3)c(=O)c-2c1C (centres undefined)
29.1

Queued: COc1cc(NC(=O)CCS(=O)(=O)c2ccc3c(c2)oc(=O)n3C)cc(OC)c1
15.8

Thanks! And CCc1ccc(-c2cc(C(=O)NCc3ccco3)c3ccccc3n2)s1 ?
41.4

Same read-out for CC(=O)c1ccc(NC(=S)NC(=O)CC(C)C)cc1 ?
26.8

What would you report for CC1(C(=O)NNC(=S)NCC2CCCO2)CC1(Cl)Cl (centres undefined) ?
-2.83

Try COC(=O)c1cc(NS(=O)(=O)c2ccc3c(c2)c(=O)n(C)c(=O)n3C)cc(C(=O)OC)c1 next.
-1.69

And COc1ccc(NC(=O)CC(NC(C)c2ccccc2)C(=O)O)cc1 (centres undefined) ?
-9.37

And then COc1cccc(-c2cc(C(=O)N/N=C/c3ccc(OC)c(COC(C)=O)c3)c3ccccc3n2)c1 , what is it?
13.2

Would you mind doing Cc1cccc(C(=O)Nc2nnc(S(=O)(=O)N3CCCCCC3)s2)c1 as well?
13.6

Cool, now O=C(Nc1ccc(Br)cc1)c1cc(S(=O)(=O)Nc2ccccn2)ccc1Cl
-18.3

====

Test: A qHTS for Small Molecule Inhibitors of Shiga Toxin; further: 0% is about no effect
Details: Vero cells, Shiga toxin protein synthesis inhibition reporter; at 38.7 µM, hits give high values
Screen size: about 290,000 compounds; about 27,000 (9.3%) were called active. Shown is part of a subset that was picked to be rich in actives.
measuredMetric: inhibition (%)
Give your result in % as a bare value.

| compound | inhibition [%] |
| --- | --- |
| O=C(c1ccccc1)N1CCN(C(=O)N2CCCCC2)CC1 | -25.1 |

What does the record list as inhibition for O=C(NCCO)C(=O)NCC(c1ccc2c(c1)OCO2)N1CCN(c2ccc(F)cc2)CC1 (stereo not given) ?
17.7

Query O=C(CSc1nnc2n1CCCN2)c1ccccc1 next
53.5

Request: COC(=O)c1ccc(S(=O)(=O)N2CCc3ccccc3C2)cc1
-1.69

====

Assay: A qHTS for Small Molecule Inhibitors of Shiga Toxin; further: 0% is about no effect
Conditions: Vero cells, Shiga toxin protein synthesis inhibition reporter; at 38.7 µM, hits give high values
Out of some 290,000 compounds screened, about 27,000 (9.3%) were called active. This excerpt belongs to a sample that is enriched for actives.
measuredMetric: inhibition (%)
Answer in %, number only, no unit symbol.

# annotated cases, reported inhibition shown
| molecule | inhibition, % |
| --- | --- |
| O=C(N/N=C/c1ccc(O)cc1)/C(=C/c1ccc([N+](=O)[O-])cc1)NC(=O)c1ccccc1 | 3.28 |
| COc1ccc(C(=O)COC(=O)CNC(=O)c2cccs2)cc1Br | -12 |
| Cc1cccc(COc2ccccc2/C=N/Nc2ccc([N+](=O)[O-])cc2)c1 | -8.03 |

Param item = COC(=O)CN1C(=O)[C@H]2[C@@H](C3CC3)N3C(=O)CN(Cc4ccc(-c5ccccc5)cc4)C(=O)[C@@]3(Cc3ccccc3)[C@H]2C1=O ; retrieve measured inhibition.
9.74

Same read-out for O=C(Nc1ccnc(-c2ccncc2)n1)c1cccs1 ?
-8.52

Param item: COC(=O)c1ccccc1NC(=O)CSc1n[nH]c(-c2ccncc2)n1
4.61

Same for CCOC(=O)C1(CCOc2ccccc2)CCN(Cc2ccc(C#CCCO)cc2)CC1
-10.3

Now give it for O=C1/C(=C/c2cccs2)CCc2ccccc21 too.
85.4

Next entry: CCOC(=O)C1(CCOC)CCN(Cc2ccc(C(=O)OC)cc2)CC1
74.5

====

Assay: A qHTS for Small Molecule Inhibitors of Shiga Toxin; further: 0% is about no effect
Conditions: Vero cells, Shiga toxin protein synthesis inhibition reporter; at 38.7 µM, hits give high values
Screen size: about 290,000 compounds; about 27,000 (9.3%) were called active. The list comes from a sample in which actives are over-represented; it also holds close analogues and randomly drawn compounds.
measuredMetric: inhibition (%)
Expressed in %, but write only the number.

// known answers, use as guide
| molecule | resultUnit | inhibition |
| --- | --- | --- |
| CC(=O)OC(C(=O)NCCc1ccccc1)c1cccnc1 (stereo not given) | % | -5.15 |
| O=C(O)c1ccccc1NC(=O)c1ccccc1-c1ccccc1C(=O)O | % | -1.49 |
| O=C(O)CCCCCCCCc1cn(CN2C(=O)c3ccccc3C2=O)nn1 | % | -8.38 |
| O=C(NNS(=O)(=O)c1ccc(F)cc1)C1CCCCC1 | % | -10.2 |

Proceed to the following item.
Given the molecule COc1ccc(-c2noc(COc3ccc(Cl)c(C)c3)n2)cc1 , what is its reported inhibition?
25.5

====

Test: A qHTS for Small Molecule Inhibitors of Shiga Toxin; further: 0% is about no effect
Conditions: Vero cells, Shiga toxin protein synthesis inhibition reporter; at 38.7 µM, hits give high values
Out of some 290,000 compounds screened, about 27,000 (9.3%) were called active. What follows is part of a selection rich in actives, with near analogues and random picks from the rest.
measuredMetric: inhibition (%)
Respond with the bare value in %.

Solved cases (3 shown):
| molecule | inhibition, % |
| --- | --- |
| C=CCn1c(=O)c(C(=O)Nc2ncccc2O)c(O)c2ccccc21 | 4.1 |
| Cc1ccccc1OCC(=O)Nc1ccc(S(=O)(=O)N2CCOCC2)cc1 | -7.1 |
| O=C(Cn1cc(C(=O)c2cccs2)c2ccccc21)NCc1cccs1 | 16.3 |

For the molecule shown here, C/C(=N\NC(=O)c1ccccc1F)c1ccccn1 , give the reported inhibition.
61.3

Do the same for Cc1ccc(-n2c(C)cc(C(=O)CN3C(=O)C(=O)N(C4CCCC4)C3=O)c2C)cc1 please
-11

Now try Cc1cc(C(=O)COC(=O)C2CC2)c(C)n1-c1ccc(F)cc1 .
52.6

Now consider CCOC(=O)N1CCN(S(=O)(=O)c2ccc(Br)cc2)CC1 .
9.83

Again, but for C/C(=N\NC(=O)Cc1ccc(Cl)cc1)c1ccccn1
13.2

All figures here come from PubChem BioAssay AID2315.
